Assay: Equilibrium solubility of the compound in phosphate buffer saline
Format: physicochemical
testReadout: solubility thermodynamic

Notebook: "O=C(O)CCCSc1nnc(-c2ccc(C3CC3)cc2Cl)o1" , solubility thermodynamic read as > 1000 µM

###

Experiment: AUC in CD-1 mouse at 10 mg/kg, iv by LC-MS/MS analysis
Type: ADME, organism-based
Settings: in vivo
testReadout: AUC (ng·h/mL)
Could you give me the number in ng·h/mL? Just the number is fine.

Notebook: "O=C(O)CCCSc1nnc(-c2ccc(Cl)cc2Cl)o1" , AUC read as 10700

###

Experiment: Half-life in CD-1 mouse at 10 mg/kg, iv by LC-MS/MS analysis
Format: ADME, organism-based
Conditions: in vivo
testReadout: half-life (h)
Could you give me the number in h? Just the number is fine.

Notebook: "O=C(O)CCCSc1nnc(-c2ccc(Cl)cc2Cl)o1" , half-life read as 1.4
